- System: HT29 colon
- assay_procedure: NCI-60 one-dose screen, 48 h (100 = growth as untreated, 0 = no growth, -100 = all killed)
- measurement_parameters: 10 µM unless noted
The panel holds about 83,000 compounds, 20% with a hit somewhere; the sample as a whole holds those more often.
So basically, if growth comes in under 90% it's Fulfilled, and if it's 90% or more it's Not fulfilled.

[ask] Say whether its growth is strictly beneath 90%. Entry: COc1cccc(C(=O)Nc2cccc(NC(=O)c3ccccn3)c2)c1
[reply] Not fulfilled

[ask] Say whether its growth is strictly beneath 90%. Entry: CCOc1ccc(N2C(=O)CCSC2=S)cc1
[reply] Not fulfilled

[ask] Say whether its growth is strictly beneath 90%. Entry: Cc1cc([N+](=O)[O-])ccc1NC(=O)c1ccc2c(c1)nc(-c1ccccc1)n2C1CCCCC1
[reply] Fulfilled

[ask] Say whether its growth is strictly beneath 90%. Entry: O=C1NC(=O)C(=Cc2cc(-c3ccc(Cl)cc3)n(-c3ccccc3)n2)C(=O)N1
[reply] Not fulfilled

[ask] Say whether its growth is strictly beneath 90%. Entry: O=C(Nc1ccccc1C(F)(F)F)C1=NCCCCN1
[reply] Not fulfilled

[ask] Say whether its growth is strictly beneath 90%. Entry: O=C1OCC2=C1C(c1cccc(F)c1)c1cc3c(cc1N2CCO)CCC3 (centres undefined)
[reply] Fulfilled

[ask] Say whether its growth is strictly beneath 90%. Entry: CCCS(=O)(=O)Nc1cccc(Nc2ncnc3cc(NC(=O)CCl)ccc23)c1Cl
[reply] Fulfilled

[ask] Say whether its growth is strictly beneath 90%. Entry: N=C(N)c1ccc(-c2ccc(-c3ccc(Cl)cc3Cl)s2)nc1
[reply] Fulfilled

----------
- Tested on: MCF7 breast
- assay_procedure: NCI-60 one-dose screen, 48 h (100 = growth as untreated, 0 = no growth, -100 = all killed)
- measurement_parameters: 10 µM unless noted
Compounds without any hit were thinned out: in the full panel of roughly 83,000, 20% have a hit. Activity calls are given as the source filed them. Rule for the calls: active = growth percent below 10; inactive = the rest.
Assignment: determine reported growth for the given molecules.

Lookup result for COc1cc(C)cc(-c2c(-c3cc(N4CC(O)C4)nc(-c4cccnc4)n3)cnn2C)c1 ; measured growth: 87.6% (inactive)

Lookup result for CC(C)(C)CC(C)(C)Nc1c(-c2c(O)c3ccccc3oc2=O)nc2sccn12 ; measured growth: 91.7% (inactive)

Lookup result for Cc1cc2c(c(C)n1)CN(C(=O)Nc1nc(-c3cncs3)ccc1N)C2 ; measured growth: 89.3% (inactive)

----------
Assignment: determine reported growth for the given molecules.
- Tested on: UACC-62 melanoma
- assay_procedure: NCI-60 one-dose screen, 48 h (100 = growth as untreated, 0 = no growth, -100 = all killed)
- measurement_parameters: 10 µM unless noted
- Protocol: Growth inhibition of the UACC-62 human tumor cell line is measured as a screen for anti-cancer activity. Cells are grown in 96 well plates and exposed to the test compound for 48 hours. Compounds are tested at a single concentration, which is 10^-5 M for most compounds. The reported endpoint is percent growth (GI% or GIPRCNT), where numbers from 0 - 100% represent growth inhibition, and numbers from -100% - 0 represent cell death. For example, a value of 40 represents 60% growth inhibition. […]
Compounds without any hit were thinned out: in the full panel of roughly 83,000, 20% have a hit. The source made the active and inactive calls. Rule for the calls: active = growth percent below 10; inactive = the rest.

Lookup result for COc1cc(/C=C2\CN(S(=O)(=O)c3ccc(C)cc3)C/C(=C\c3cc(CN4CCCC4)c(O)c(OC)c3)C2=O)cc(CN2CCCC2)c1O ; measured growth: 34.3% (inactive)

Lookup result for COC(=O)c1sc(-c2ccc(C)cc2)cc1O ; measured growth: 97.1% (inactive)

Lookup result for O=C1c2c(c3c4cc(F)ccc4oc3c3[nH]c4ccccc4c23)C(=O)N1O ; measured growth: 3.37% (active)

Lookup result for CCN1CCN(CCOc2ccc(CNc3ccc4nc(CCC5CCCCC5)[nH]c4c3)cc2)CC1 ; measured growth: -16.4% (active)
